// reported #Surface metastases (lung) for each item listed
Test system: 4T1 tumors
Test: 4T1 TNBC model in vivo (primary tumor and lung metastases)
Design: species or system mouse
Conditions: 4T1 model; 1,25D 0.25 μg/kg, SAHA 80 mg/kg, AM-193 0.2 mg/kg, ZG-126 high 5.0 mg/kg; vehicle 166
Parameter: #Surface metastases (lung)

>  <Molecule>
O=C(CCCCCCC(=O)Nc1ccccc1)NO [SAHA, reference compound]

>  <Parameter>
#Surface metastases (lung)

>  <Observed Value>
139

$$$$
>  <Molecule>
CCC(CC)(c1ccc(C(=O)NCCCCC(=O)NO)cc1)c1ccc(OCC(O)C(C)(C)C)c(C)n1 (stereo not shown) [ZG-126]

>  <Parameter>
#Surface metastases (lung)

>  <Observed Value>
47

$$$$
>  <Molecule>
CCC(CC)(c1ccc(OCCCCCC(=O)NO)cc1)c1ccc(OCC(O)C(C)(C)C)c(C)n1 (stereo not shown) [AM-193, reference compound]

>  <Parameter>
#Surface metastases (lung)

>  <Observed Value>
89

$$$$
>  <Molecule>
C=C1/C(=C\C=C2/CCC[C@]3(C)[C@@H]([C@H](C)CCCC(C)(C)O)CC[C@@H]23)C[C@@H](O)C[C@@H]1O [1,25D, 1,25-dihydroxyvitamin D]

>  <Parameter>
#Surface metastases (lung)

>  <Observed Value>
114

$$$$

----------
Tested on: MDA-MB-231 TNBC cells
Test: RealTime-Glo cell viability assay, MDA-MB-231 cells
Format: cell-based, human
Settings: Homo sapiens, RealTime-Glo, 24 h, read-out: IC50 (cytotoxicity)
// reported IC50 for each item listed

>  <Molecule>
CCC(CC)(c1ccc(C(=O)NCCCC(=O)NO)cc1)c1ccc(OCC(O)C(C)(C)C)c(C)n1 (stereo not shown) [ZG-132]

>  <Target>
MDA-MB-231 TNBC cells

>  <IC50 / nM>
950

$$$$
>  <Molecule>
CCC(CC)(c1ccc(OCCCCCC(=O)NO)cc1)c1ccc(OCC(O)C(C)(C)C)c(C)n1 (stereo not shown) [AM-193, reference compound]

>  <Target>
MDA-MB-231 TNBC cells

>  <IC50 / nM>
500

$$$$
>  <Molecule>
CCC(CC)(c1ccc(C(=O)NCCCCCC(=O)NO)cc1)c1ccc(OCC(O)C(C)(C)C)c(C)n1 (stereo not shown) [ZG-102]

>  <Target>
MDA-MB-231 TNBC cells

>  <IC50 / nM>
2180

$$$$
>  <Molecule>
CCC(CC)(c1ccc(C(=O)NCCCCCC(=O)NO)cc1)c1ccc(OCC(O)C(C)(C)C)c(C)c1 (stereo not shown) [DK-406, reference compound]

>  <Target>
MDA-MB-231 TNBC cells

>  <IC50 / nM>
2430

$$$$

----------
// reported MTD for each item listed
Experiment: in vivo
Conditions: BALB/c, mouse, ip

>  <Molecule>
CCC(CC)(c1ccc(C(=O)NCCCC(=O)NO)cc1)c1ccc(OCC(O)C(C)(C)C)c(C)n1 (centres unmarked)

>  <MTD>
10 mg/kg

$$$$
>  <Molecule>
CCC(CC)(c1ccc(C(=O)NCCCCC(=O)NO)cc1)c1ccc(OCC(O)C(C)(C)C)c(C)n1 (centres unmarked)

>  <MTD>
10 mg/kg

$$$$
>  <Molecule>
CCC(CC)(c1ccc(C(=O)NCCCCCC(=O)NO)cc1)c1ccc(OCC(O)C(C)(C)C)c(C)c1 (centres unmarked) [DK-406, reference compound]

>  <MTD>
1 mg/kg

$$$$
>  <Molecule>
CCC(CC)(c1ccc(C(=O)NCCCCCC(=O)NO)cc1)c1ccc(OCC(O)C(C)(C)C)c(C)n1 (centres unmarked)

>  <MTD>
10 mg/kg

$$$$
>  <Molecule>
CCC(CC)(c1ccc(OCCCCCC(=O)NO)cc1)c1ccc(OCC(O)C(C)(C)C)c(C)n1 (centres unmarked) [AM-193, reference compound]

>  <MTD>
0.5 mg/kg

$$$$
